- systemUnderTest: T1, human Siglec-7 expressed on human cells (primary monocytes, dendritic cells, macrophages, NK cells, … (human, UniProt Q9Y286 19-467))
- T1 construct: Endogenous receptor on cells; also called Siglec-7 receptor
- T1 sequence (Q9Y286 19-467): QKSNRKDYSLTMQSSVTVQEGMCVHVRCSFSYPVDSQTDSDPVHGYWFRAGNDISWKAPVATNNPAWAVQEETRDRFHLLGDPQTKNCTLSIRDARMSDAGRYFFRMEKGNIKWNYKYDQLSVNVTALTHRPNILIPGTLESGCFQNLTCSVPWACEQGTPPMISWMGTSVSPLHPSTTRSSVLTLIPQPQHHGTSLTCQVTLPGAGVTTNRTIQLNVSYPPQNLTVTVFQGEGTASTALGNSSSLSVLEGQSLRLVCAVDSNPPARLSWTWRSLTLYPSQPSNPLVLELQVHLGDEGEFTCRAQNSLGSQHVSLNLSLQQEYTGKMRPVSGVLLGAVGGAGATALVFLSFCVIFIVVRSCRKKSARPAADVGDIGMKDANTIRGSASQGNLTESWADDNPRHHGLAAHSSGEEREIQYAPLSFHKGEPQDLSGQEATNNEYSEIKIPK
- protocolDetails: FACS, human primary dendritic cells, 10 ug/ml mAb
assayReadout: MFI
A bare number is all that is needed in reply.

In the examples that follow, each entry is paired with its recorded MFI.
{"binder": "anti-Siglec-7 antibody 10G8 (antibody, V domains shown, Variable domains assembled from FR and CDR entries) VH: EVKLVEFGGALVKPGGSLKLSCAALGFTFSTYAMFRVRQTPEKREEGVASISSGGRYTYYPDSAKDRHPIFRDNARNTLYLQMSSLRSKDTAMYYCVRHSYGSSYWYLDVWGAGTTVTVSS VL: DIQMTQFPATLSGTPGDRVZLSRRASQSIREYLHWYQQKSHESPRLZIKFASQSICGIPSRFSGSGSGSDFTLSINTVEPEDVGVYYCQKAHNFPYTFGGGTKLEIK", "MFI": 897}
{"binder": "anti-Siglec-7 antibody 7F12 (antibody, V domains shown, Variable domains assembled from FR and CDR entries) VH: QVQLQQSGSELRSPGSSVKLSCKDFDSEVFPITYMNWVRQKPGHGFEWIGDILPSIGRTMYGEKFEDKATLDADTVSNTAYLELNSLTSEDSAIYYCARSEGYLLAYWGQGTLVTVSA VL: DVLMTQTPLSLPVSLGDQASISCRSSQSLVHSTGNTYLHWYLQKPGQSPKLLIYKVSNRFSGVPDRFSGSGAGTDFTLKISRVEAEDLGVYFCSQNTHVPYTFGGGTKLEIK", "MFI": 5000}

Recorded MFI for anti-Siglec-7 antibody 4A1 (antibody, V domains shown, Variable domains assembled from FR and CDR entries) VH: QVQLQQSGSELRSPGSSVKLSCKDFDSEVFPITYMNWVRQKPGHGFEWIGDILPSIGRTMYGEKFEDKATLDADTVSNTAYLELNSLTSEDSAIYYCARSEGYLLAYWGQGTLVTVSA VL: DVVMTQTPLSLPVSLGDQASISCRSSQSLVHSTGNIYLHWYLQKPGQSPKLLIYKVSNRFZGVPDRFSGSGSGTDFTLKISRVEAEDLGVYFCSQNTHVPYTFGGGTKLEIK , please?
5450
